Each item that follows carries a reported LD50.
PROTOCOL: Acute toxicity in mice (i.p., Lichfield and Wilcoxon), with paralytic side effect
Format: in vivo, male Swiss mice
MEASUREMENT_PARAMETERS: mouse, in vivo, ip

Use these answered entries as a reference point.
{"columns": ["COMPOUND", "VALUE_KIND", "RECORDED_MEASUREMENT"],
 "data": [
  ["CCCOCN1c2cc(OC)c(C3(C(=O)OC)CC4CN(CCc5c3[nH]c3ccccc53)CC(O)(CC)C4)cc2C23CCN4CC=CC(CC)(C(OC(C)=O)C(O)(C(=O)OC)C12)C43 (centres unmarked)", "LD50", "~80 mg/kg"],
  ["CCOCN1c2cc(OC)c(C3(C(=O)OC)CC4CN(CCc5c3[nH]c3ccccc53)CC(O)(CC)C4)cc2C23CCN4CC=CC(CC)(C(OC(C)=O)C(O)(C(=O)OC)C12)C43 (centres unmarked) [N-Desmethyl-N-(ethoxymethyl)-vinblastine]", "LD50", "~110 mg/kg"],
  ["CCC1(O)CC2CN(CCc3c([nH]c4ccccc34)C(C(=O)OC)(c3cc4c(cc3OC)N(COCC(C)C)C3C(O)(C(=O)OC)C(OC(C)=O)C5(CC)C=CCN6CCC43C65)C2)C1 (centres unmarked)", "LD50", "~60 mg/kg"],
  ["C=CCOCN1c2cc(OC)c(C3(C(=O)OC)CC4CN(CCc5c3[nH]c3ccccc53)CC(O)(CC)C4)cc2C23CCN4CC=CC(CC)(C(OC(C)=O)C(O)(C(=O)OC)C12)C43 (centres unmarked)", "LD50", "~45 mg/kg"]
]}

Note: attention shifts to another entry.
The compound identified as CC[C@]1(O)C[C@@H]2CN(CCc3c([nH]c4ccccc34)[C@@](C(=O)OC)(c3cc4c(cc3OC)N(C)[C@H]3[C@@](O)(C(N)=O)[C@H](O)[C@]5(CC)C=CCN6CC[C@]43[C@@H]65)C2)C1 [vindesine, reference compound] registered its LD50 at 4 mg/kg

----------
PROTOCOL: Acute toxicity in mice (i.p., Lichfield and Wilcoxon), with paralytic side effect
Assay type: in vivo, male Swiss mice
MEASUREMENT_PARAMETERS: symbols 0 / + not defined
VALUE_KIND: Paralytic side effect

{"columns": ["MOLECULE", "Paralytic side effect"],
 "data": [
  ["CCC1(O)CC2CN(CCc3c([nH]c4ccccc34)C(C(=O)OC)(c3cc4c(cc3OC)N(COCC(C)C)C3C(O)(C(=O)OC)C(OC(C)=O)C5(CC)C=CCN6CCC43C65)C2)C1 (stereo not drawn)", 0]
]}

Value of measured Paralytic side effect for the entry C=CCOCN1c2cc(OC)c(C3(C(=O)OC)CC4CN(CCc5c3[nH]c3ccccc53)CC(O)(CC)C4)cc2C23CCN4CC=CC(CC)(C(OC(C)=O)C(O)(C(=O)OC)C12)C43 (stereo not drawn) : 0

In plain terms, CCC1(O)CC2CN(CCc3c([nH]c4ccccc34)C(C(=O)OC)(c3cc4c(cc3OC)N(COC3CCCCC3)C3C(O)(C(=O)OC)C(OC(C)=O)C5(CC)C=CCN6CCC43C65)C2)C1 (stereo not drawn) has a documented Paralytic side effect of 0

Briefly, Paralytic side effect measured for CCCOCN1c2cc(OC)c(C3(C(=O)OC)CC4CN(CCc5c3[nH]c3ccccc53)CC(O)(CC)C4)cc2C23CCN4CC=CC(CC)(C(OC(C)=O)C(O)(C(=O)OC)C12)C43 (stereo not drawn) : 0

Lab note: measured Paralytic side effect of CCCCCCCOCN1c2cc(OC)c(C3(C(=O)OC)CC4CN(CCc5c3[nH]c3ccccc53)CC(O)(CC)C4)cc2C23CCN4CC=CC(CC)(C(OC(C)=O)C(O)(C(=O)OC)C12)C43 (stereo not drawn) was 0

The reported Paralytic side effect of the molecule CCC1(O)CC2CN(CCc3c([nH]c4ccccc34)C(C(=O)OC)(c3cc4c(cc3OC)N(COCc3ccccc3)C3C(O)(C(=O)OC)C(OC(C)=O)C5(CC)C=CCN6CCC43C65)C2)C1 (stereo not drawn) was 0

Recorded Paralytic side effect (molecule CCOCN1c2cc(OC)c(C3(C(=O)OC)CC4CN(CCc5c3[nH]c3ccccc53)CC(O)(CC)C4)cc2C23CCN4CC=CC(CC)(C(OC(C)=O)C(O)(C(=O)OC)C12)C43 (stereo not drawn) [N-Desmethyl-N-(ethoxymethyl)-vinblastine] ): 0

Item: CCC1(O)CC2CN(CCc3c([nH]c4ccccc34)C(C(=O)OC)(c3cc4c(cc3OC)N(COC)C3C(O)(C(=O)OC)C(OC(C)=O)C5(CC)C=CCN6CCC43C65)C2)C1 (stereo not drawn) | Paralytic side effect: 0

Consider CC[C@]1(O)C[C@@H]2CN(CCc3c([nH]c4ccccc34)[C@@](C(=O)OC)(c3cc4c(cc3OC)N(C)[C@H]3[C@@](O)(C(=O)OC)[C@H](OC(C)=O)[C@]5(CC)C=CCN6CC[C@]43[C@@H]65)C2)C1 [vinblastine, reference compound] . Its measured Paralytic side effect is 0
